Test system: Plasmodium falciparum
Experiment: Antiplasmodial activity against Plasmodium falciparum Dd2 asexual blood stages after 3 days by HRP2 detection based ELISA method
Type: functional, organism-based
Details: Dd2, 72 h
pIC50 values, listed per item
When answering, recall that pIC50 equals minus log10 of the concentration in mol/L, and write that number alone.

# annotated cases, reported pIC50 shown
{"COMPOUND": "Cc1ccc(/C=N/N=C(\\N)CC(O)c2ccc3ccccc3c2)cc1 (stereo not drawn)", "pIC50": 6.42}
{"COMPOUND": "N/C(CC(O)c1cccc2ccccc12)=N\\N=C\\c1ccc(F)cc1 (stereo not drawn)", "pIC50": 6.70}
{"COMPOUND": "N/C(CC(O)c1cccc2ccccc12)=N\\N=C\\c1ccc(C(F)(F)F)cc1 (stereo not drawn)", "pIC50": 6.52}
{"COMPOUND": "COc1ccc(/C=N/N=C(\\N)CC(O)c2ccc3ccccc3c2)cc1 (stereo not drawn)", "pIC50": 6.21}
{"COMPOUND": "N/C(CC(O)c1cccc2ccccc12)=N\\N=C\\c1ccccc1 (stereo not drawn)", "pIC50": 6.62}

Input: Recall and state the measured pIC50 for N/C(CC(O)c1cccc2ccccc12)=N\N=C\c1ccc(F)cc1F (stereo not drawn) .
Output: 6.72

Input: Recall and state the measured pIC50 for N/C(CC(O)c1cccc2ccccc12)=N\N=C\c1ccco1 (stereo not drawn) .
Output: 6.42

Input: Recall and state the measured pIC50 for CCC/C(=N\N=C(/N)CC(O)c1cccc2ccccc12)c1ccccc1 (stereo not drawn) .
Output: 6.21

Input: Recall and state the measured pIC50 for N/C(CC(O)c1cc2ccccc2c2ccccc12)=N\N=C\c1ccc(F)cc1 (stereo not drawn) .
Output: 7.96

Input: Recall and state the measured pIC50 for COc1cc([C@@H]2c3cc4c(cc3[C@H](O)[C@H]3COC(=O)[C@H]23)OCO4)cc(OC)c1OC .
Output: 5.08

Input: Recall and state the measured pIC50 for N/C(=N\N=C\c1ccccc1)C(O)c1cccc2ccccc12 (stereo not drawn) .
Output: 5.41

Input: Recall and state the measured pIC50 for C[C@H]1[C@H](OC(=O)CCC(=O)O)O[C@@H]2O[C@@]3(C)CC[C@H]4[C@H](C)CC[C@@H]1[C@@]24OO3 [ARTESUNATE] .
Output: 8.70

Input: Recall and state the measured pIC50 for CCOc1cc(/C=N/N=C(\N)CC(O)c2cccc3ccccc23)ccc1O (stereo not drawn) .
Output: 6.35

Input: Recall and state the measured pIC50 for N/C(CC(O)c1ccc2ccccc2c1)=N\N=C\c1ccc(F)cc1 (stereo not drawn) .
Output: 5.60

Input: Recall and state the measured pIC50 for N/C(CC(O)c1cccc2ccccc12)=N\N=C\c1cccnc1 (stereo not drawn) .
Output: 5.96

Input: Recall and state the measured pIC50 for CCOc1cc(/C=N/N=C(\N)CC(O)c2ccc3ccccc3c2)ccc1O (stereo not drawn) .
Output: 5.89

Input: Recall and state the measured pIC50 for N/C(CC(O)c1cccc2ccccc12)=N\N=C\c1ccc(Cl)c(Cl)c1 (stereo not drawn) .
Output: 6.72

Input: Recall and state the measured pIC50 for COc1ccc(/C=N/N=C(\N)CC(O)c2cccc3ccccc23)cc1 (stereo not drawn) .
Output: 6.68

Input: Recall and state the measured pIC50 for C/C(=N\N=C(/N)CC(O)c1cccc2ccccc12)c1ccc(F)cc1 (stereo not drawn) .
Output: 6.13

All figures here come from ChEMBL document CHEMBL3351566.
